Test system: Escherichia coli
assay.text: Antibacterial activity against Escherichia coli DSM-1116 assessed as minimum inhibitory concentration required for inhibition of bacterial growth in presence of outer membrane permeabilizer PMBN measured after 18 hrs by microdilution method
Assay type: functional
value.type: MIC (µg/mL)
Reply with just the number (in µg/mL).

The reported value for C=CC(=O)N[C@H]1C(O)=C(C(N)=O)C(=O)[C@@]2(O)C(=O)c3c(c(C)c4ccc(C)c(O)c4c3O)C[C@@H]12 in terms of MIC is 2

The reported value for Cc1ccc2c(C)c3c(c(O)c2c1O)C(=O)[C@]1(O)C(=O)C(C(N)=O)=C(O)[C@H](NC(=O)CCN)[C@@H]1C3 in terms of MIC is 8

The reported value for Cc1ccc2c(C)c3c(c(O)c2c1OC(=O)c1ccc(Br)cc1)C(=O)[C@]1(O)C(=O)C(C(N)=O)=C(O)[C@H](N)[C@@H]1C3 in terms of MIC is 64

The reported value for Cc1ccc2c(C)c3c(c(O)c2c1O)C(=O)[C@]1(O)C(=O)C(C(N)=O)=C(O)[C@H](NC(=O)CN2CCN(C)CC2)[C@@H]1C3 in terms of MIC is 32

###

System: Escherichia coli
assay.text: Antibacterial activity against Escherichia coli DSM-1116 assessed as minimum inhibitory concentration required for inhibition of bacterial growth measured after 18 hrs by microdilution method
Format: functional
value.type: MIC (µg/mL)
Reply with just the number (in µg/mL).

Fill in: Escherichia coli MIC for Cc1ccc2c(C)c3c(c(O)c2c1O)C(=O)[C@]1(O)C(=O)C(C(N)=O)=C(O)[C@H](N)[C@@H]1C3.O=C([O-])CC(O)(CC(=O)[O-])C(=O)[O-].[Na+].[Na+].[Na+] = 0.5

Fill in: Escherichia coli MIC for Cc1ccc2c(C)c3c(c(O)c2c1O)C(=O)[C@]1(O)C(=O)C(C(N)=O)=C(O)[C@H](NC(=O)CCN)[C@@H]1C3 = 16

Fill in: Escherichia coli MIC for Cc1ccc2c(C)c3c(c(O)c2c1O)C(=O)[C@]1(O)C(=O)C(C(N)=O)=C(O)[C@H](NC(=O)CN2CCN(C)CC2)[C@@H]1C3 = 54

Fill in: Escherichia coli MIC for C=CC(=O)N[C@H]1C(O)=C(C(N)=O)C(=O)[C@@]2(O)C(=O)c3c(c(C)c4ccc(C)c(O)c4c3O)C[C@@H]12 = 32

Fill in: Escherichia coli MIC for CC(=O)C1=C(O)[C@H](N)[C@@H]2Cc3c(c(O)c4c(O)c(C)ccc4c3C)C(=O)[C@]2(O)C1=O.O=C([O-])CC(O)(CC(=O)[O-])C(=O)[O-].[Na+].[Na+].[Na+] = 2

Fill in: Escherichia coli MIC for CC(=O)Oc1c(C)ccc2c(C)c3c(c(O)c12)C(=O)[C@]1(O)C(=O)C(C(N)=O)=C(O)[C@H](N)[C@@H]1C3 = 8
